Conditions: human gut metagenome, 24 h, 2 µM; note: call rule not given here

molecule: Cc1ccc(-c2cc(C(F)(F)F)nn2-c2ccc(S(N)(=O)=O)cc2)cc1
Bacterial Biotransformation: Compound metabolized
--
molecule: COc1c2occc2cc2ccc(=O)oc12
Bacterial Biotransformation: Compound metabolized
--
molecule: COc1ccc2[nH]c([S+]([O-])Cc3ncc(C)c(OC)c3C)nc2c1 (centres undefined)
Bacterial Biotransformation: Compound metabolized
--
molecule: C=CCc1ccccc1OCC(O)CNC(C)C (centres undefined)
Bacterial Biotransformation: Compound metabolized
--
molecule: CN1CCN(CC/C=C2/c3ccccc3Sc3ccc(S(=O)(=O)N(C)C)cc32)CC1
Bacterial Biotransformation: Compound metabolized
--
molecule: COC(=O)C1=C(C)NC(C)=C(C(=O)OC(C)C)C1c1cccc2nonc12 (centres undefined)
Bacterial Biotransformation: Compound metabolized
--
molecule: CN1CCc2cccc3c2[C@H]1Cc1ccc(O)c(O)c1-3
Bacterial Biotransformation: Compound NOT metabolized
--
molecule: CN1C(C(=O)Nc2ccccn2)=C(O)c2sccc2S1(=O)=O
Bacterial Biotransformation: Compound NOT metabolized
--
molecule: O=C1[C@H](CC[C@H](O)c2ccc(F)cc2)[C@@H](c2ccc(O)cc2)N1c1ccc(F)cc1
Bacterial Biotransformation: Compound metabolized

====

Conditions: human gut metagenome, 24 h, 2 µM

compound: O=c1[nH]c2ccccc2n1C1CCN(CCCC(c2ccc(F)cc2)c2ccc(F)cc2)CC1 [PIMOZIDE]
Bacterial Biotransformation: Compound NOT metabolized

compound: CCCCC1=NC2(CCCC2)C(=O)N1Cc1ccc(-c2ccccc2-c2nnn[nH]2)cc1
Bacterial Biotransformation: Compound metabolized

compound: CC(O)(CS(=O)(=O)c1ccc(F)cc1)C(=O)Nc1ccc(C#N)c(C(F)(F)F)c1 (stereo unspecified) [BICALUTAMIDE]
Bacterial Biotransformation: Compound NOT metabolized

compound: COC(=O)Nc1nc2ccc(C(=O)c3ccccc3)cc2[nH]1
Bacterial Biotransformation: Compound metabolized

compound: Cc1ccc(-c2cc(C(F)(F)F)nn2-c2ccc(S(N)(=O)=O)cc2)cc1
Bacterial Biotransformation: Compound NOT metabolized

compound: CCCc1nc(C(C)(C)O)c(C(=O)OCc2oc(=O)oc2C)n1Cc1ccc(-c2ccccc2-c2nnn[nH]2)cc1
Bacterial Biotransformation: Compound metabolized

====

Experiment: The drug is tested on WLS-052 corresponding to human gut metagenome with ENA study accession number: PRJEB37062 and ENA sample accession number: ERS12561747 for biotransformation under anaerobic condition. The drug concentrations were measured over 9 timepoints collected between 0 and 24 hours of incubation by liquid-chromatography-coupled mass spectrometry (LC–MS)
Conditions: 2 µM
readout.name: Bacterial Biotransformation

compound: NC12CC3CC(CC(C3)C1)C2
result: Compound NOT metabolized
//
compound: N#Cc1ccc(C(c2ccc(C#N)cc2)n2cncn2)cc1
result: Compound NOT metabolized
//
compound: O=C(O)CCc1nc(-c2ccccc2)c(-c2ccccc2)o1
result: Compound metabolized
//
compound: C#C[C@]1(O)CC[C@H]2[C@@H]3CCC4=Cc5oncc5C[C@]4(C)[C@H]3CC[C@@]21C
result: Compound metabolized
//
compound: OC(CCN1CCCCC1)(c1ccccc1)C1CCCCC1 (centres undefined)
result: Compound NOT metabolized
//
compound: COc1ccc(CCN(C)CCCC(C#N)(c2ccc(OC)c(OC)c2)C(C)C)cc1OC (centres undefined)
result: Compound NOT metabolized
//
compound: CN1CCN(CC/C=C2/c3ccccc3Sc3ccc(S(=O)(=O)N(C)C)cc32)CC1
result: Compound metabolized
//
compound: CCCCc1nc(Cl)c(CO)n1Cc1ccc(-c2ccccc2-c2nn[nH]n2)cc1
result: Compound NOT metabolized
//
compound: CC(O)(CS(=O)(=O)c1ccc(F)cc1)C(=O)Nc1ccc(C#N)c(C(F)(F)F)c1 (centres undefined) [BICALUTAMIDE]
result: Compound NOT metabolized
//
compound: CS(=O)(=O)O.O.O.O.O=C1Cc2cc(CCN3CCN(c4nsc5ccccc45)CC3)c(Cl)cc2N1 [ZIPRASIDONE MESYLATE]
result: Compound metabolized
//
compound: CN(C)CCC=C1c2ccccc2C=Cc2ccccc21
result: Compound metabolized
//
compound: Cc1ccc(/C(=C\CN2CCCC2)c2ccccn2)cc1
result: Compound NOT metabolized
//
compound: CO[C@]12C[C@@H](COC(=O)c3cncc(Br)c3)CN(C)[C@@H]1Cc1cn(C)c3cccc2c13
result: Compound metabolized
//
compound: CCC1(c2ccc(N)cc2)CCC(=O)NC1=O (centres undefined) [AMINOGLUTETHIMIDE]
result: Compound NOT metabolized
//
compound: OC(CCN1CCCCC1)(c1ccccc1)C1CC2C=CC1C2 (centres undefined)
result: Compound NOT metabolized
//
compound: Br.CN(C)CCCC1(c2ccc(F)cc2)OCc2cc(C#N)ccc21 (centres undefined) [CITALOPRAM HYDROBROMIDE]
result: Compound NOT metabolized
//
compound: CC(Oc1c(Cl)cccc1Cl)C1=NCCN1 (centres undefined)
result: Compound NOT metabolized
//
compound: CN1CCOC(c2ccccc2)c2ccccc2C1 (centres undefined)
result: Compound NOT metabolized
//
compound: O=C1[C@H](CC[C@H](O)c2ccc(F)cc2)[C@@H](c2ccc(O)cc2)N1c1ccc(F)cc1
result: Compound NOT metabolized
//
compound: O=C(Nc1ccccc1)OCC(CN1CCCCC1)OC(=O)Nc1ccccc1 (centres undefined)
result: Compound NOT metabolized
//
compound: CCCc1nc(C(C)(C)O)c(C(=O)OCc2oc(=O)oc2C)n1Cc1ccc(-c2ccccc2-c2nnn[nH]2)cc1
result: Compound metabolized
//
compound: NC(=O)N1c2ccccc2CC(=O)c2ccccc21 [OXCARBAZEPINE]
result: Compound NOT metabolized
//
compound: CCN(CC)CC#CCOC(=O)C(O)(c1ccccc1)C1CCCCC1.Cl (centres undefined) [OXYBUTYNIN CHLORIDE]
result: Compound metabolized
//
compound: CC(C)NCC(O)COc1ccc(COCCOC(C)C)cc1.CC(C)NCC(O)COc1ccc(COCCOC(C)C)cc1.O=C(O)/C=C/C(=O)O (centres undefined) [BISOPROLOL FUMARATE]
result: Compound NOT metabolized
//
compound: COC(=O)[C@H]1[C@H]2C[C@@H]3c4[nH]c5cc(OC)ccc5c4CCN3C[C@H]2C[C@@H](OC(=O)c2cc(OC)c(OC)c(OC)c2)[C@@H]1OC
result: Compound NOT metabolized
//
compound: C[C@@H](CO)NC(=O)[C@@H]1C=C2c3cccc4[nH]cc(c34)C[C@H]2N(C)C1.O=C(O)/C=C\C(=O)O [ERGONOVINE MALEATE]
result: Compound metabolized
//
compound: CC(C)OC(=O)C(C)(C)Oc1ccc(C(=O)c2ccc(Cl)cc2)cc1 [FENOFIBRATE]
result: Compound NOT metabolized
//
compound: CCCC(=O)Nc1ccc(OCC(O)CNC(C)C)c(C(C)=O)c1 (centres undefined)
result: Compound NOT metabolized
//
compound: CC(=O)OCC(=O)[C@@]1(O)[C@@H](C)C[C@H]2[C@@H]3CCC4=CC(=O)C=C[C@]4(C)[C@@]3(F)[C@@H](O)C[C@@]21C [BETAMETHASONE ACETATE]
result: Compound metabolized
//
compound: COc1c(C)c2c(c(O)c1C/C=C(\C)CCC(=O)OCCN1CCOCC1)C(=O)OC2 [MYCOPHENOLATE MOFETIL]
result: Compound metabolized
//
compound: CCN(CC)CCOCCOC(=O)C1(c2ccccc2)CCCC1.O=C(O)CC(O)(CC(=O)O)C(=O)O [CARBETAPENTANE CITRATE]
result: Compound metabolized
//
compound: O=C(NCc1ccccc1)OCCO [BURAMATE]
result: Compound NOT metabolized
//
compound: COc1ccccc1N1CCN(CC(O)COc2cccc3ccccc23)CC1 (centres undefined)
result: Compound NOT metabolized
//
compound: CC(C)NCC(O)c1ccc(NS(C)(=O)=O)cc1 (centres undefined)
result: Compound NOT metabolized

====

Conditions: human gut metagenome, 24 h, 2 µM

compound: COc1ccc2[nH]c([S+]([O-])Cc3ncc(C)c(OC)c3C)nc2n1 (configuration not stated)
Bacterial Biotransformation: Compound metabolized
//
compound: OC(CCN1CCCCC1)(c1ccccc1)C1CC2C=CC1C2 (configuration not stated)
Bacterial Biotransformation: Compound metabolized
//
compound: COC1=CC(=O)C[C@@H](C)[C@]12Oc1c(Cl)c(OC)cc(OC)c1C2=O
Bacterial Biotransformation: Compound metabolized
//
compound: COc1ccc2c3c1O[C@H]1C[C@@H](O)C=C[C@@]31CCN(C)C2
Bacterial Biotransformation: Compound metabolized
//
compound: CC[C@H](C)C(=O)O[C@H]1C[C@@H](C)C=C2C=C[C@H](C)[C@H](CC[C@@H]3C[C@@H](O)CC(=O)O3)[C@H]21
Bacterial Biotransformation: Compound NOT metabolized
//
compound: Cc1ccc(S(=O)(=O)NC(=O)NN2CCCCCC2)cc1 [TOLAZAMIDE]
Bacterial Biotransformation: Compound metabolized
//
compound: Fc1ccc([C@@H]2CCNC[C@H]2COc2ccc3c(c2)OCO3)cc1
Bacterial Biotransformation: Compound metabolized
//
compound: C[C@@H]1CC[C@H]2[C@@H](C)C(=O)O[C@@H]3O[C@@]4(C)CC[C@@H]1[C@]32OO4
Bacterial Biotransformation: Compound metabolized
//
compound: CN/C(=N/CCSCc1nc[nH]c1C)NC#N
Bacterial Biotransformation: Compound metabolized
//
compound: CCC1(c2ccc(N)cc2)CCC(=O)NC1=O (configuration not stated) [AMINOGLUTETHIMIDE]
Bacterial Biotransformation: Compound NOT metabolized
//
compound: CN1CCN(C(=O)O[C@H]2c3nccnc3C(=O)N2c2ccc(Cl)cn2)CC1
Bacterial Biotransformation: Compound NOT metabolized
//
compound: Cc1ccc(-c2cc(C(F)(F)F)nn2-c2ccc(S(N)(=O)=O)cc2)cc1
Bacterial Biotransformation: Compound metabolized
//
compound: CC(=O)OCC(=O)[C@@]12N=C(C)O[C@@H]1C[C@H]1[C@@H]3CCC4=CC(=O)C=C[C@]4(C)[C@H]3[C@@H](O)C[C@@]12C
Bacterial Biotransformation: Compound metabolized
//
compound: O=c1[nH]c2ccccc2n1CCCN1CCC(n2c(=O)[nH]c3cc(Cl)ccc32)CC1
Bacterial Biotransformation: Compound NOT metabolized
//
compound: OC(CCN1CCCCC1)(c1ccccc1)C1CCCCC1 (configuration not stated)
Bacterial Biotransformation: Compound metabolized
//
compound: Nc1ccc(/N=N/c2ccccc2)c(N)n1
Bacterial Biotransformation: Compound metabolized
//
compound: C[C@@H]1C[C@H]2[C@@H]3CCC4=CC(=O)C=C[C@]4(C)[C@@]3(F)[C@@H](O)C[C@]2(C)[C@@]1(O)C(=O)CO
Bacterial Biotransformation: Compound NOT metabolized

// data source = ChEMBL document CHEMBL5724914
